MEASURED_TARGET: Programmed cell death protein 1/Programmed cell death 1 ligand 1 (Homo sapiens)
PROCEDURE_TEXT: Inhibition of human PD-1/PD-L1 interaction incubated for 24 hrs by HTRF assay
Assay type: protein-complex assay
PARAMETER_MEASURED: IC50 (nM)
Write the answer as a number in nM, unit excluded.

The reported value for Cc1c(/C=C/c2ccc(CNC(C)(CO)C(=O)O)cc2C(F)(F)F)cccc1-c1ccc2c(c1)OCCO2 (stereo unspecified) in terms of IC50 is 18

----------
MEASURED_TARGET: Programmed cell death protein 1/Programmed cell death 1 ligand 1 (Homo sapiens)
PROCEDURE_TEXT: Inhibition of PD-1/PD-L1 interaction (unknown origin) by TR-FRET assay
Assay type: protein-complex assay
PARAMETER_MEASURED: pIC50
Scale for pIC50: -log10 of concentration given in mol/L; no unit attached.

The reported value for Cc1c(COc2cc(OCc3cccc(C#N)c3)c(CNC(CO)(CO)CO)cc2Cl)cccc1-c1cccc(-c2cc(C(=O)N3CC[C@@H](O)C3)no2)c1 in terms of pIC50 is 7.64

----------
MEASURED_TARGET: Programmed cell death protein 1/Programmed cell death 1 ligand 1 (Homo sapiens)
PROCEDURE_TEXT: Inhibition of human […] interaction incubated for 15 mins by TR-FRET assay
Assay type: protein-complex assay
PARAMETER_MEASURED: IC50 (nM)
Write the answer as a number in nM, unit excluded.

The reported value for CS(=O)(=O)c1cncc(CCc2nc(OCc3cccc(-c4cccc(-c5ccc6c(c5)C[C@H](N)C6)c4Cl)c3Cl)c(Br)cc2CN2CCCC[C@@H]2C(=O)O)c1 in terms of IC50 is 0.09

----------
MEASURED_TARGET: Programmed cell death protein 1/Programmed cell death 1 ligand 1 (Homo sapiens)
PROCEDURE_TEXT: Inhibition of PD-1/PD-L1 (unknown origin) interaction incubated for 2 hr by TR-FRET assay
Format: protein-complex assay
PARAMETER_MEASURED: pIC50
Scale for pIC50: -log10 of concentration given in mol/L; no unit attached.

The reported value for Cn1nc(Nc2cccc(-c3ccc4c(c3)OCCO4)c2Cl)c2ccc(CN[C@H](CO)C(=O)O)cc21 in terms of pIC50 is 8.02

----------
MEASURED_TARGET: Programmed cell death protein 1/Programmed cell death 1 ligand 1 (Homo sapiens, UniProt Q9NZQ7)
Sequence (Q15116 whole entry): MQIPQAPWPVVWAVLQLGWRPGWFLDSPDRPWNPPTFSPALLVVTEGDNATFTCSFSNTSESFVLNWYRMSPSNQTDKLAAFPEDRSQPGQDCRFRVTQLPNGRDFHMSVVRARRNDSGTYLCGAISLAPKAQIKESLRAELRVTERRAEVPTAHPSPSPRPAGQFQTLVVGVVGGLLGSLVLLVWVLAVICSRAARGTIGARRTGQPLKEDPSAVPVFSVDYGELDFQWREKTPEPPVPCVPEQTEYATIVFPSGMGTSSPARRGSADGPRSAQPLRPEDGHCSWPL
Sequence (Q9NZQ7 whole entry): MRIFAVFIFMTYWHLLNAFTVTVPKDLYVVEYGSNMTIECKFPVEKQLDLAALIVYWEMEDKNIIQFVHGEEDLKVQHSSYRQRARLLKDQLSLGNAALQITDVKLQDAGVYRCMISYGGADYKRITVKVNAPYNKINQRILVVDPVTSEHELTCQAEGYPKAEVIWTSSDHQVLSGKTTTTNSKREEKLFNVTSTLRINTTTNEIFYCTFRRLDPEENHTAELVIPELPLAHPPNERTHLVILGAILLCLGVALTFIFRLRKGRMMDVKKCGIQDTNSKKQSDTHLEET
PROCEDURE_TEXT: Inhibition of PD-1/PD-L1 interaction (unknown origin) by AlphaLISA assay relative to control
Type: protein-complex assay
PARAMETER_MEASURED: IC50 (nM)
Write the answer as a number in nM, unit excluded.

The reported value for Cc1c(COc2cc(OCc3cncc(C#N)c3)c(CNC(C)(C)C(=O)O)cc2Cl)cccc1-c1ccccc1 in terms of IC50 is 2.7

The reported value for Cc1c(COc2cc(OCc3cncc(C#N)c3)c(CN(CCCN(C)C)CCS(=O)(=O)O)cc2Cl)cccc1-c1ccc2c(c1)OCCO2 in terms of IC50 is 2.7

----------
Test system: Jurkat
PROCEDURE_TEXT: Induction of T cell activation in human Jurkat T cells overexpressing PD-1 co-cultured with Chinese hamster CHO cells overexpressing PD-L1 assessed as increase in luciferase activity incubated for 6 hrs by Bio-GloTM reagent based immune checkpoint blockade assay
Assay type: functional
PARAMETER_MEASURED: EC50 (nM)
Write the answer as a number in nM, unit excluded.

The reported value for Cn1nc(Nc2cccc(-c3ccc4c(c3)OCCO4)c2Cl)c2ccc(CN[C@H](CO)C(=O)O)cc21 in terms of EC50 is 1610

----------
MEASURED_TARGET: Programmed cell death protein 1/Programmed cell death 1 ligand 1 (Homo sapiens, UniProt Q9NZQ7)
PROCEDURE_TEXT: Inhibition of PD-1/PD-L1 (unknown origin) interaction incubated for 1 hr by HTRF assay
Format: protein-complex assay
PARAMETER_MEASURED: IC50 (nM)
Write the answer as a number in nM, unit excluded.

The reported value for Cc1c(COc2cc(OCc3ccc(OC(F)(F)F)nc3)c(N3CCCCC3C(=O)O)cc2Cl)cccc1-c1ccccc1 (stereo unspecified) in terms of IC50 is 56.6

----------
MEASURED_TARGET: Programmed cell death protein 1/Programmed cell death 1 ligand 1 (Homo sapiens, UniProt Q9NZQ7)
PROCEDURE_TEXT: Inhibition of PD-1/PD-L1 (unknown origin) protein-protein interaction incubated for 15 mins by TR-FRET assay
Assay type: protein-complex assay
PARAMETER_MEASURED: pIC50
Scale for pIC50: -log10 of concentration given in mol/L; no unit attached.

The reported value for Cc1cc(/C=C/c2ccc3cc(N(C)C)ccc3[n+]2C)c(C)n1-c1ccccc1 in terms of pIC50 is 7.53
